- assayRemarks: NCI Yeast Anticancer Drug Screen. Data for the cln2 rad14 strain (AID 165);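 also: 0% = growth equal to vehicle treated cultures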
- testConditions: S. cerevisiae cln2 rad14 strain, at 50.0 µM, active compounds read high
- Procedure: Growth inhibition of yeast strains with defined genetic alterations is measured as a screen for potential anti-cancer activity. Selected strains with alterations in DNA damage repair or cell cycle control were exposed to compounds and growth inhibition was measured relative to vehicle treated controls. The strain used in this assay is cln2 rad14
This is part of a sample that, as a whole, favours compounds with a hit. Of some 79,000 tested, about 15% had one in any assay.
measure: growth inhibition (%)

{"compound": "CC1OC(n2ccc(=O)[nH]c2=O)C=C(OC(=O)c2ccccc2)C1=O (stereo not drawn)", "observedMeasurement": -7}
{"compound": "COc1ccc(/C=N/N2CN(C(C)C(=O)O)C(C)(O)N=C2N)cc1OC (stereo not drawn)", "observedMeasurement": -8.95}
{"compound": "OCCn1c2ccccc2c2ccccc21", "observedMeasurement": -17.2}
{"compound": "OC(Cc1ccccc1)c1ccccc1 (stereo not drawn)", "observedMeasurement": 16.2}
{"compound": "CCCCCCCCCCCCCCCCNc1nc(=O)n(C2CC(O)C(COP(=O)(O)OC3CC(n4cc(F)c(=O)[nH]c4=O)OC3CO)O2)cc1F (stereo not drawn)", "observedMeasurement": 0.95}
{"compound": "O=CNc1ccc(-c2ccc(NC=O)cc2)cc1", "observedMeasurement": 13.1}
{"compound": "C/C(CC/C(C)=N/NC(N)=O)=N/NC(N)=O", "observedMeasurement": 0.55}
{"compound": "C=CCN(CC=C)CCNc1cc(C)nc(Nc2nc3ccc(Cl)cc3[nH]2)n1", "observedMeasurement": 82}
{"compound": "CCCCc1c(O)c(N=NC(N)=S)c2ccccc2c1O", "observedMeasurement": -22.1}
{"compound": "COc1ccc2[nH]c(=O)oc(=O)c2c1", "observedMeasurement": -33.9}
{"compound": "O=C(c1ccccc1)C1Nc2ccc(Cl)cc2C2C=CCC12 (stereo not drawn)", "observedMeasurement": -7.95}
{"compound": "Cc1c(C)c(C)c(CNNC(=S)Nc2ccc(S(=O)(=O)N3CCCCC3)cc2)c(C)c1C", "observedMeasurement": 8.6}
{"compound": "Clc1ccc(Cl)c(Nc2ccnc(SCc3ccccc3)n2)c1", "observedMeasurement": 14.4}
{"compound": "O=C(CCl)Oc1cccc2cccnc12", "observedMeasurement": -12.2}
{"compound": "COc1ccc(CCc2ccc(OC)c(OCc3ccccc3)c2)cc1COc1ccccc1", "observedMeasurement": 3.85}
{"compound": "CC(=O)N1c2ccccc2C23CCN4CC5=CCOC(O)C(C5CC42)C13 (stereo not drawn)", "observedMeasurement": -6.55}
{"compound": "COc1cccc(C(=O)NNC(=O)c2ccc3ccccc3c2)c1", "observedMeasurement": 6.55}
{"compound": "CC(=O)NC1C(OC(C)=O)OC(COC(c2ccccc2)(c2ccccc2)c2ccccc2)C(O)C1OC(C)=O (stereo not drawn)", "observedMeasurement": 41.2}
{"compound": "O=C1c2ccccc2C(=O)N1CCCSc1ccc(F)cc1", "observedMeasurement": 3.5}
{"compound": "O=C1OC(c2ccccc2)=N/C1=C/c1c(-c2ccccc2)c(-c2ccccc2)c2n1CCC2", "observedMeasurement": 25.5}
{"compound": "CCCCOC(=O)c1ccc(NC(=O)Nc2c(C)cccc2C)cc1", "observedMeasurement": -6.2}
{"compound": "c1ccc(C2=NN(c3ccccc3)C3C4CCC(C4)C23)cc1 (stereo not drawn)", "observedMeasurement": -49}
{"compound": "CCCCCCCCCCCCCCCC(=O)NCNC(=O)CCCCCCCCCCCCCCC", "observedMeasurement": -6.55}

###

- assayRemarks: NCI Yeast Anticancer Drug Screen. Data for the mec2-1 strain (AID 157)
- testConditions: S. cerevisiae mec2-1 strain, at 50.0 µM
- Description: Growth inhibition of yeast strains with defined genetic alterations is measured as a screen for potential anti-cancer activity. Selected strains with alterations in DNA damage repair or cell cycle control were exposed to compounds and growth inhibition was measured relative to vehicle treated controls. The strain used in this assay is mec2-1
The panel holds about 79,000 compounds, 15% with a hit somewhere; the sample as a whole holds those more often. Calls of active or inactive are those of the source. No stated cut-off is given here; in the data, active means growth inhibition above about 70%; inactive means the rest.
Outcomes: active, inactive

{"compound": "Cc1nc2ccccc2c(=O)n1NC(=O)c1ccc([N+](=O)[O-])cc1", "groupLabel": "inactive"}
{"compound": "COc1cc(C=C2N=C(c3ccccc3)N(n3c(-c4ccccc4)nc4ccccc4c3=O)C2=O)cc(OC)c1OC", "groupLabel": "inactive"}
{"compound": "Cc1ccc(N=c2cc(-c3ccccc3)oc3ccccc23)cc1", "groupLabel": "inactive"}
{"compound": "CNC(=O)NC1CCC(C)CC1 (centres undefined)", "groupLabel": "inactive"}
{"compound": "NC(=O)c1cc2ccccc2[n+](Cc2ccc(F)cc2)c1", "groupLabel": "inactive"}
{"compound": "NS(=O)(=O)c1ccccc1", "groupLabel": "inactive"}
{"compound": "O=C(Cc1ccc([N+](=O)[O-])cc1)ON1C(=O)CCC1=O", "groupLabel": "inactive"}
{"compound": "CC(C)(C)/[N+]([O-])=C/C1(C2(/C=[N+](\\[O-])C(C)(C)C)Cc3ccccc3C2=O)Cc2ccccc2C1=O (centres undefined)", "groupLabel": "inactive"}
{"compound": "COc1ccc(OC)c(N=Nc2cc(OC)ccc2OC)c1", "groupLabel": "inactive"}
{"compound": "COc1cc(C)c(C(=O)c2ccccc2NS(=O)(=O)c2ccc(C)cc2)cc1OC", "groupLabel": "inactive"}
{"compound": "CCNC(=O)N(Cc1ccccc1)Cc1ccccc1", "groupLabel": "inactive"}
{"compound": "CC(C)/C(=N\\N=C(\\c1ccccc1)C(C)C)c1ccccc1", "groupLabel": "inactive"}
{"compound": "C=C1C(=O)C=C2C=C3C(=O)C(C)(C)C[C@]3(O)C12C (some centres undefined)", "groupLabel": "active"}
{"compound": "S=c1c2ccccc2sn1-c1ccccc1", "groupLabel": "inactive"}
{"compound": "Cc1cc2nc(CCC(=O)O)c(=O)[nH]c2cc1C", "groupLabel": "inactive"}
{"compound": "C[n+]1cccc2c(=O)c3ccccc3oc21", "groupLabel": "inactive"}
{"compound": "Fc1cccc(C2ON=C(c3ccccc3)N2C23CC4CC(CC(C4)C2)C3)c1 (centres undefined)", "groupLabel": "inactive"}
{"compound": "CC(=O)Nc1ccc(S(=O)(=O)N=S(c2ccccc2)c2ccccc2)cc1", "groupLabel": "inactive"}
{"compound": "CNC(=O)C1CCC(CC2CCCCC2)CC1 (centres undefined)", "groupLabel": "inactive"}
{"compound": "O=C(NCc1ccccc1)C1C2C=CC(C2)C1C(=O)NCc1ccccc1 (centres undefined)", "groupLabel": "inactive"}
{"compound": "Cc1ccc(NC(=O)CCC(=O)C2Cc3ccccc3C2=O)cc1C (centres undefined)", "groupLabel": "inactive"}
{"compound": "CCCCCCCN=C(N)CSSCC(N)=NCCCCCCC", "groupLabel": "active"}
{"compound": "Cc1ccccc1N=C(N)Nc1ccccc1C", "groupLabel": "inactive"}
{"compound": "CC(=O)NNC(=S)N/C=C(\\C#N)c1nc2ccccc2s1", "groupLabel": "inactive"}

###

- assayRemarks: NCI Yeast Anticancer Drug Screen. Data for the mec2-1 strain (AID 157)
- testConditions: S. cerevisiae mec2-1 strain, at 50.0 µM, active compounds read high
This is part of a sample that, as a whole, favours compounds with a hit. Of some 79,000 tested, about 15% had one in any assay.

{"compound": "O=C1NC2(O)C(=O)c3ccccc3C2(O)N1 (stereo not given)", "readoutUnit": "%", "growth inhibition": -10.2}
{"compound": "C/C(=N/NC(=S)N1CCCCC1)c1ccccc1O", "readoutUnit": "%", "growth inhibition": -41.7}
{"compound": "CN(C)c1ccc(C=Nc2cc(S(=O)(=O)O)cc3cc(S(=O)(=O)O)cc(O)c23)cc1", "readoutUnit": "%", "growth inhibition": -9.7}
{"compound": "c1ccc2c(c1)CC1c3ccccc3CC21 (stereo not given)", "readoutUnit": "%", "growth inhibition": -7}
{"compound": "CC(C)CCCC(C)C1CCC2C3CC=C4CC(OC(=O)C(Cl)(Cl)Cl)CCC4(C)C3CCC12C (stereo not given)", "readoutUnit": "%", "growth inhibition": -7.55}
{"compound": "O=C(Nc1ccc(Cl)cc1)Nc1nnc2nc(C3(c4nc5nnc(NC(=O)Nc6ccc(Cl)cc6)n5[nH]c4=O)CCCC3=O)c(=O)[nH]n12", "readoutUnit": "%", "growth inhibition": -19.5}
{"compound": "CC(C)(C)OC(=O)Cc1ccc2c(ccn2Cc2ccccc2)c1", "readoutUnit": "%", "growth inhibition": -29.6}
{"compound": "COC(=O)CC1(O)C(C=C(C)C)C(C(=O)OC)C(=O)C(C(=O)OC)C1C(=O)OC (stereo not given)", "readoutUnit": "%", "growth inhibition": -7.15}
{"compound": "CN1C(=O)C23CCCN2C(=O)C1(C)SC(=N)S3 (stereo not given)", "readoutUnit": "%", "growth inhibition": 7.6}
{"compound": "CN(Cc1ccccc1)C(=O)c1ccc(Cl)cc1", "readoutUnit": "%", "growth inhibition": 3.75}
{"compound": "CSC(SC)=C1CCCC(=C(SC)SC)C1=O", "readoutUnit": "%", "growth inhibition": -9.3}
{"compound": "Nn1c(SSSSc2nnc(-c3ccccc3)n2N)nnc1-c1ccccc1", "readoutUnit": "%", "growth inhibition": 3.85}
{"compound": "O=C1OCC(O)=C1C(c1ccc(Cl)cc1)c1cc2c(cc1O)OCO2 (stereo not given)", "readoutUnit": "%", "growth inhibition": -16.7}
{"compound": "O=C1CCCN(Cc2ccccc2)C1", "readoutUnit": "%", "growth inhibition": -25.2}
{"compound": "COc1ccc(-c2c3nc(c(-c4ccc(OC)cc4)c4[n-]c(c(-c5ccc(OC)cc5)c5nc(c(-c6ccc(OC)cc6)c6[n-]c2c2ccccc62)-c2ccccc2-5)c2ccccc42)-c2ccccc2-3)cc1.[Zn+2]", "readoutUnit": "%", "growth inhibition": -18.7}
{"compound": "O=S(O)OS(=O)O", "readoutUnit": "%", "growth inhibition": -19.4}
{"compound": "O=C(O)c1ccc(S(=O)(=O)N=Nc2c(O)[nH]c3ccccc23)cc1", "readoutUnit": "%", "growth inhibition": -5.2}
{"compound": "C=CC1(C(=O)O)CCC(C(C)(C)C)CC1 (stereo not given)", "readoutUnit": "%", "growth inhibition": 42}
{"compound": "CSc1ncc2c(C#N)c3ccccn3c(=O)c2n1", "readoutUnit": "%", "growth inhibition": -7}
{"compound": "CC(=O)NCCNC(=O)c1ccc(C)c(OCc2ccccc2)c1[N+](=O)[O-]", "readoutUnit": "%", "growth inhibition": 11.7}
{"compound": "C[N+](C)(C)CCOC(=O)/C=C/c1cnc[nH]1", "readoutUnit": "%", "growth inhibition": 10.9}
{"compound": "N#CC1(C#N)C2(c3ccccc3)OC(c3ccccc3)(c3cc4ccccc4cc32)C1(C#N)C#N", "readoutUnit": "%", "growth inhibition": 20.1}
{"compound": "COc1cc(C(=O)O)cc(OC)c1OC(C)=O", "readoutUnit": "%", "growth inhibition": -7}
{"compound": "O=C(O)CCNCCO", "readoutUnit": "%", "growth inhibition": 13.4}
{"compound": "O=c1[nH]c2ccccc2c(=O)n1CCCN1CCN(c2cccc(Cl)c2)CC1", "readoutUnit": "%", "growth inhibition": 12.4}
{"compound": "CC(C)OC(=O)Oc1ccccc1Cl", "readoutUnit": "%", "growth inhibition": -21.1}
{"compound": "Clc1ccc(-c2onc3ccc(Br)cc23)cc1", "readoutUnit": "%", "growth inhibition": -12.3}
{"compound": "CC(=O)O[C@H]1CC[C@@]2(C)C(=CC[C@H]3[C@@H]4CC[C@H](c5cc(C(F)(F)F)n(C(C)=O)n5)[C@@]4(C)CC[C@@H]32)C1", "readoutUnit": "%", "growth inhibition": -6.7}
{"compound": "Cc1cc(O)cc(C)c1Cl", "readoutUnit": "%", "growth inhibition": -25.9}
{"compound": "O=C(NCCCCCCNC(=O)C1CCCN1C(=O)OCc1ccccc1)C1CCCN1C(=O)OCc1ccccc1 (stereo not given)", "readoutUnit": "%", "growth inhibition": -24.2}
{"compound": "CC(NC(=O)C(N)CC(=O)O)NC(=O)N(C)C(C)(C)C (stereo not given)", "readoutUnit": "%", "growth inhibition": 1.75}
{"compound": "CS(=O)(=O)CC(=O)c1ccc(O)cc1O", "readoutUnit": "%", "growth inhibition": 3.55}
{"compound": "COC1OC(COS(=O)(=O)c2ccc(C)cc2)C(OS(=O)(=O)c2ccc(C)cc2)C1OCc1ccccc1 (stereo not given)", "readoutUnit": "%", "growth inhibition": 2.85}
{"compound": "Cc1[nH]n(-c2nc(-c3ccccc3)cc(=O)[nH]2)c(=O)c1CCO", "readoutUnit": "%", "growth inhibition": -31.5}
{"compound": "CCOC(C#CC(C)=O)OCC", "readoutUnit": "%", "growth inhibition": 31.3}
{"compound": "CC(=O)NC1c2ccccc2C(C)(C)C12CCC1(CC2)OCCO1 (stereo not given)", "readoutUnit": "%", "growth inhibition": -17.1}
{"compound": "CCc1nc2c([nH]1)C(=O)c1ccccc1C2=O", "readoutUnit": "%", "growth inhibition": 19.2}
{"compound": "CSc1nc(=O)n(CCC#N)nc1SC", "readoutUnit": "%", "growth inhibition": 21.9}
{"compound": "CC12CCC3c4ccc(Cc5ccc([N+](=O)[O-])cc5)cc4CCC3C1CCC2=O (stereo not given)", "readoutUnit": "%", "growth inhibition": 9.2}
{"compound": "COc1ccc(C2=Nc3cccc4c3N(CCC4)C2c2ccc(OC)cc2)cc1 (stereo not given)", "readoutUnit": "%", "growth inhibition": 2.45}
{"compound": "NC(=O)c1ccccc1Sc1ccccc1C(N)=O", "readoutUnit": "%", "growth inhibition": 2.35}
{"compound": "O=C(C(=Cn1c(=O)cc[nH]c1=S)C(=O)c1ccccc1)c1ccccc1", "readoutUnit": "%", "growth inhibition": -19.4}
{"compound": "NNC(=O)C(=O)O", "readoutUnit": "%", "growth inhibition": -2.95}
{"compound": "COc1ccc2c(C)cc(N/N=C(\\C)c3cn(C)n(-c4ccccc4)c3=O)nc2c1", "readoutUnit": "%", "growth inhibition": -7.1}
{"compound": "Cc1cccc(C(=O)c2ccccc2Cc2cccc3ccccc23)c1C", "readoutUnit": "%", "growth inhibition": -6.8}
